Let's look at some compounds and their measured Emax.
EXPERIMENTAL_SYSTEM: F508delCFTR (Homo sapiens, UniProt P13569, DEL508-508)
Construct: expressed in transfected cells; host or cells: CFBE41o- human lung-derived epithelial cells (CFBE4lo-F508delCFTR-HRP), doxycycline-inducible
Sequence (P13569 with tags, fused parts or gaps DEL508-508): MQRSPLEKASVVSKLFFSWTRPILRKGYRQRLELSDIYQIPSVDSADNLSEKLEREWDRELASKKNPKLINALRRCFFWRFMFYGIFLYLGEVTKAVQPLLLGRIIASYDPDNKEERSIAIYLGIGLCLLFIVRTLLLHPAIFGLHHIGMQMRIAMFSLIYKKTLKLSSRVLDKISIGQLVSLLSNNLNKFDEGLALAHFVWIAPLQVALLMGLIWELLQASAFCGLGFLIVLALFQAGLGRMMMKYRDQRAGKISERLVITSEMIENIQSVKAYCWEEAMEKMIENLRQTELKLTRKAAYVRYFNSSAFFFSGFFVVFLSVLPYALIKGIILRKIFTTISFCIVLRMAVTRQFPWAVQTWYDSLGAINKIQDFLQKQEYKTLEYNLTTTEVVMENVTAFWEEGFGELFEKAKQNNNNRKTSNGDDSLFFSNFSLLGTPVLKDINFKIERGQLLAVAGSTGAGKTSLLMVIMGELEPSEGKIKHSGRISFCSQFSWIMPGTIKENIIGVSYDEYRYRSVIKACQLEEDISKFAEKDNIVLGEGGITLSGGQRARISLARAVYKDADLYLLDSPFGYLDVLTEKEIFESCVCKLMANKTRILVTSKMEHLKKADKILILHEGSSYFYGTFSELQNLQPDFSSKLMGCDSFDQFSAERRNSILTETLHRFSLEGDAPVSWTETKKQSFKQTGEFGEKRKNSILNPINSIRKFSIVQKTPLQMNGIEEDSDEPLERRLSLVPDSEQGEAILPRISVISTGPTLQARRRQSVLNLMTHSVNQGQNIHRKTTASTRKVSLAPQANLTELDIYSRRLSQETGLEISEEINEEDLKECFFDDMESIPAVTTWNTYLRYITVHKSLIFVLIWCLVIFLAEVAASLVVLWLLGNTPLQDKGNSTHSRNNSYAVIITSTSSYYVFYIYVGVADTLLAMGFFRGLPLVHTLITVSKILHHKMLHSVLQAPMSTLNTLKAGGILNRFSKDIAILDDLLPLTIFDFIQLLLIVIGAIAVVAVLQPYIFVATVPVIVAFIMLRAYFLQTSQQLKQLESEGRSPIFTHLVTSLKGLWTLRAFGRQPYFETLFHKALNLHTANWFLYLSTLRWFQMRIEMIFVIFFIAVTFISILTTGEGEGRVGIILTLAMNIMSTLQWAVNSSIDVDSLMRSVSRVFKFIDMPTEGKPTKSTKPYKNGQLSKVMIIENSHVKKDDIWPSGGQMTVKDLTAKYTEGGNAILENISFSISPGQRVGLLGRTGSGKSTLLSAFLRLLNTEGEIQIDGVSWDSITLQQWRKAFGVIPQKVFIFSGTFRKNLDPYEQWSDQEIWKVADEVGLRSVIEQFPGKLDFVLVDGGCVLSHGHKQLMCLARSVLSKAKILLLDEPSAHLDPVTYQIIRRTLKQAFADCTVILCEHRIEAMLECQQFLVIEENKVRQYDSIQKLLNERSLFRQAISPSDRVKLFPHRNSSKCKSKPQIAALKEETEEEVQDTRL
PROCEDURE_DETAILS: Cell Surface Expression-Horse Radish Peroxidase (CSE-HRP) Assay;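 as to Maximum % activity (without co-corrector): percent of the 2 µM on-plate positive control corrector response above DMSO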
Type: cell-based
CONDITION_PARAMETERS: without co-corrector; maximum at any tested concentration, normalized to on-plate positive control; read-out: Maximum % activity (without co-corrector)

Challenge: Find the measured Emax of Cc1cc(C(F)(F)F)cc(N[C@@H]2[C@@H](C3CC3)[C@H](C(=O)O)N(C(=O)C3CCCCC3)[C@@H]2c2ccccc2)n1 (racemic) and report it.
Response given: < 100%

Challenge: Find the measured Emax of COc1cc(C(F)(F)F)ccc1CN[C@H]1[C@H](C(C)(C)C)[C@@H](C(=O)O)N(C(=O)[C@@H]2CCCCO2)[C@H]1c1ccccc1 and report it.
Response given: > 200%

Challenge: Find the measured Emax of COc1ccc(C(C)(C)C)cc1CN[C@H]1[C@H](C(C)(C)C)[C@@H](C(=O)O)N(C(=O)[C@H]2OCC[C@H]2C(C)C)[C@H]1c1ccccc1 (relative stereo) and report it.
Response given: > 200%

Challenge: Find the measured Emax of COc1ncc(C2CCCC2)cc1CN[C@H]1[C@H](C(C)(C)C)[C@@H](C(=O)O)N(C(=O)C2CCCCC2)[C@H]1c1cccnc1N(C)C and report it.
Response given: > 200%

Next:
Challenge: Find the measured Emax of COC(=O)N1CCC[C@@H](C(=O)N2[C@H](c3ccccc3)[C@H](Nc3cc(C(F)(F)F)cc(C)n3)[C@@H](C(C)(C)C)[C@@H]2C(=O)O)C1 (racemic) and report it.
Response given: > 200%

Challenge: Find the measured Emax of COc1ccc(C(C)(C)C)cc1CN[C@H]1[C@H](C(C)(C)C)[C@@H](C(=O)O)N(C(=O)[C@H](C)[C@H]2CCCCO2)[C@H]1c1ccccc1 (relative stereo) and report it.
Response given: > 200%

Challenge: Find the measured Emax of COc1ncc(C(F)(F)F)cc1CN[C@H]1[C@H](C(C)(C)C)[C@@H](C(=O)O)N(C(=O)OC(C)C)[C@H]1c1ccccc1C1CC1 and report it.
Response given: > 200%

Challenge: Find the measured Emax of COc1ccc(C2(C)CCC2)cc1CN[C@H]1[C@H](C(C)(C)C)[C@@H](C(=O)O)N(C(=O)[C@@H]2CCCCO2)[C@H]1c1ccccc1C and report it.
Response given: > 200%

Challenge: Find the measured Emax of COc1ccc(C(C)(C)C)cc1CN[C@H]1[C@H](C(C)(C)C)[C@@H](C(=O)O)N(C(=O)[C@@H]2CCCCO2)[C@H]1c1ccccc1OC(F)F and report it.
Response given: > 200%

---

EXPERIMENTAL_SYSTEM: F508delCFTR (Homo sapiens, UniProt P13569, DEL508-508)
Construct: expressed in transfected cells; host or cells: CFBE41o- human lung-derived epithelial cells (CFBE4lo-F508delCFTR-HRP), doxycycline-inducible
PROCEDURE_DETAILS: Cell Surface Expression-Horse Radish Peroxidase (CSE-HRP) Assay
Assay type: cell-based
CONDITION_PARAMETERS: with co-corrector (2 μM of 3-[(2R,4R)-4-({[1-(2,2-difluoro-1,3-benzodioxol-5-yl)cyclopropyl]carbonyl}amino)-7-methoxy-3,4-dihydro-2H-chromen-2-yl]benzoic acid); read-out: EC50 (with co-corrector)
Let's look at some compounds and their measured EC50.

Take a look at these entries with their results.
Challenge: Find the measured EC50 of CC(C)(C)[C@@H]1[C@@H](NCc2cc(Br)ccc2C#N)[C@@H](c2ccccc2)N(C(=O)C2CCCCC2)[C@H]1C(=O)O (racemic) and report it.
Response given: 1000 to 10000 nM

Challenge: Find the measured EC50 of COc1ccc(C(C)(C)C)cc1CN[C@H]1[C@H](C(C)(C)C)[C@@H](C(=O)O)N(C(=O)C2CCc3ccc(F)cc3O2)[C@H]1c1cccnc1N(C)C (single isomer, unassigned) [II-453] and report it.
Response given: < 1000 nM

Challenge: Find the measured EC50 of COc1ncc(C(F)(F)F)cc1N[C@H]1[C@H](C(C)(C)C)[C@@H](C(=O)O)N(C(=O)[C@H]2CCCC[C@@H]2C(F)(F)F)[C@H]1c1cccnc1N(C)C and report it.
Response given: 1000 to 10000 nM

Challenge: Find the measured EC50 of COc1ccc(C(C)(C)C)cc1CN[C@H]1[C@H](C(C)(C)C)[C@@H](C(=O)O)N(C(=O)c2cnn(C)c2-c2ccccc2)[C@H]1c1ccccc1 and report it.
Response given: 1000 to 10000 nM

Challenge: Find the measured EC50 of COc1ccc(C(C)(C)C)cc1CN[C@H]1[C@H](C(C)(C)C)[C@@H](C(=O)O)N(C(=O)C2CCC(F)(F)CC2)[C@H]1c1ccccc1 and report it.
Response given: 1000 to 10000 nM

Challenge: Find the measured EC50 of COc1ncc(C(C)(C)C)cc1CN[C@H]1[C@H](C(C)(C)C)[C@@H](C(=O)O)N(C(=O)C2CCCCC2)[C@H]1c1ccccc1F and report it.
Response given: < 1000 nM

Continue with the next compound.
Challenge: Find the measured EC50 of CC(C)N(C(=O)N1[C@H](c2ccccc2)[C@H](NCc2ccccc2OC(F)F)[C@@H](C)[C@@H]1C(=O)O)C(C)C (racemic) and report it.
Response given: 1000 to 10000 nM
